Origin of the recorded values: PubChem BioAssay (NCI)

Reported growth inhibition values for the following compounds.
# measurement_notes: NCI Yeast Anticancer Drug Screen. Data for the sgs1 mgt1 strain (AID 161);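 note: 0% = growth of cultures given vehicle only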
# condition_notes: S. cerevisiae sgs1 mgt1 strain, at 50.0 µM, stronger effect = higher value
Compounds without any hit were thinned out: in the full panel of roughly 79,000, 15% have a hit.
endpoint_label: growth inhibition (%)

# compound, measured_value
data = [
    ("Nc1nn[nH]n1 (tested in a mixture with another compound)", -3.7),
    ("CCN1CCOC(CC)(c2cc(Cl)cc(Cl)c2Cl)C1 (stereo not given)", 8.4),
    ("C=C1C(=O)OC2/C=C(\\C)CC/C=C(/C)CC(OC(=O)/C(=C/CO)CO)C12 (stereo not given)", 14.7),
    ("O=[N+]([O-])c1ccc(P(=O)(O)O)cc1", 0.3),
    ("COc1ccc(N)cc1OC", -4.8),
    ("NC(=O)OC(CCl)CCl", -9),
    ("COC1C(OC(=O)c2ccc(C)[nH]2)C(O)C(Oc2ccc3c(O)c(NC(=O)c4ccc(O)c(CC=C(C)C)c4)c(=O)oc3c2Cl)OC1(C)C (stereo not given)", 23.8),
    ("COc1ccc(CC(N)c2nn[nH]n2)cc1 (stereo not given)", -1.1),
    ("CN1C2CCC1[C@@H](COC(=O)c1ccccc1)[C@@H](O)C2 (stereo not given in full)", -15.6),
    ("Cn1c2c(c3ccccc31)CCN1OCC=C[C@@H](C(=O)O)[C@@H]21", -6.3),
]

====

# measurement_notes: NCI Yeast Anticancer Drug Screen. Data for the mec2-1 strain (AID 157)
# condition_notes: S. cerevisiae mec2-1 strain, at 50.0 µM, stronger effect = higher value
Compounds without any hit were thinned out: in the full panel of roughly 79,000, 15% have a hit. Where a SMILES comes first, the peptide text is derived from it. [ ]: non-standard residue; d: D form. The star is where a group is joined. ξ: configuration not given here. X14 = COC1=CC(=O)N(C(=O)C(O*)C(C)C)C1Cc1ccccc1; ξNMe2Val = CC(C)C(C(=O)*)N(C)C; NMeV = CN[CH](C(=O)O)C(C)C

# compound, growth inhibition, %
rows = [
    ("N#Cc1ccc(Cc2ccccn2)cc1Cl", -1.55),
    ("c1ccc(CN2C3c4ccccc4C2c2ccccc23)cc1", -2.2),
    ("CCOC(=O)C1C2(C(C)=O)C=Nc3c(C#N)cnn3C12C(=O)OCC (configuration not stated)", -3.35),
    ("O=[N+]([O-])c1ccc(-n2nc3ccc4c(no[n+]4[O-])c3n2)cc1", 23.5),
    ("COC1=CC(=O)N(C(=O)C(OC(=O)C2CCCN2C(=O)C2CCCN2C(=O)C(C(C)C)N(C)C(=O)C(NC(=O)C(C(C)C)N(C)C)C(C)C)C(C)C)C1Cc1ccccc1 (configuration not stated) (ξNMe2Val-V[NMeV]PP-X14; configuration not given here)", -21.4),
    ("S=P(C1CCCCC1)(C1CCCCC1)C(c1cccnc1)N1CCCC1 (configuration not stated)", -9.1),
    ("Cn1cnnc1[N+](=O)[O-]", 5.85),
    ("Cc1cc(Nc2ccc(N(CCCl)CCCl)cc2)c(C)cc1O", 10),
    ("C1CCN2CC3CONC3C2C1 (configuration not stated)", -7.5),
    ("CC(=O)[O-].CC(=O)[O-].O=C(N/N=C/c1cc(Cl)cc(Cl)c1O)c1ccncc1.[Cu+2]", 2.75),
    ("CS(=O)(=O)c1ccc([As](=O)(O)O)cc1", 0.1),
    ("N#CC1OC1c1cccnc1 (configuration not stated)", -1.45),
]
